DC50 reference
- measurement_target: VAV1 (Homo sapiens, UniProt P15498+Q96SW2)
- Construct: A heterozygous VAV1 C-terminal HiBiT knock-in pool was generated at Monte Rosa Therapeutics from a clonal Jurkat cell; endogenous in cells; host or cells: Jurkat clone stably expressing LgBiT, homozygous GSPT1-G575N; heterozygous VAV1-HiBiT knock-in pool
- experiment: VAV1 degradation activity, VAV1-HiBiT knock-in Jurkat luminescence assay (Example A, Table 1)
- Format: cell-based
- protocol_conditions: VAV1-HiBiT knock-in Jurkat cells, luminescence read at 6 and 24 hours; read-out: VAV1 DC50 (nM), class
- Description: Cells were plated at 10,000 cells per well using Multiflo (BioTek) or Multi Drop Combi (Thermo Fisher) in 384-well white solid bottom plates (Corning, 3570BC) in 25 ul volume in RPMI 1640 media (Thermo Fischer, 22400105) containing 10% FBS (Corning, 35-075-CV), 1% Penicillin/Streptomycin (ThermoFisher Scientific, 15140-122), and 1% Endurazine (Nano-Glo Endurazine Live Cell Substrate (Promega, N2571)). Cells were incubated for ˜16 hours at 37° C., 5% CO2. […]

// below: answered compounds
INSERT INTO assay_data (compound, quantity, value_observed) VALUES
  ('O=C1CCC(c2cccc(-c3ccc(Oc4ncccn4)cc3)c2Cl)C(=O)N1 (stereo not drawn)', 'DC50', '≤ 100 nM'),
  ('O=C1CCC(c2cccc(-c3ccc(Cc4ccncn4)cc3)c2Cl)C(=O)N1 (stereo not drawn)', 'DC50', '≤ 100 nM'),
  ('O=C1CCC(c2cccc(-c3ccc(N4C(=O)CCCC4C(F)(F)F)cc3)c2Cl)C(=O)N1 (stereo not drawn)', 'DC50', '≤ 100 nM'),
  ('O=C1CCC(c2cccc(-c3ccc(C(=O)Nc4ccno4)cc3)c2Cl)C(=O)N1 (stereo not drawn)', 'DC50', '> 1000 nM'),
  ('O=C1CCC(c2cccc(-c3ccc(CN4CCCOC4=O)nc3)c2Cl)C(=O)N1 (stereo not drawn)', 'DC50', '> 1000 nM'),
  ('CC(Oc1ccccn1)c1ccc(-c2cccc(C3CCC(=O)NC3=O)c2Cl)cc1 (stereo not drawn)', 'DC50', '≤ 100 nM'),
  ('O=C1CCC(c2cccc(-c3ccc(N4C(=O)CC5CC54)cc3)c2Cl)C(=O)N1 (stereo not drawn)', 'DC50', '100 to 1000 nM'),
  ('O=C1CCC(c2cccc(-c3ccc(N4C(=O)CCCC45CC5)cc3)c2Cl)C(=O)N1 (stereo not drawn)', 'DC50', '≤ 100 nM');

Request: What measured DC50 goes with Cn1ccc(COc2ccc(-c3cc(C#N)cc(C4CCC(=O)NC4=O)c3Cl)cc2)n1 (stereo not drawn) ?
Result: > 1000 nM

Request: Now the same for O=C1CCC(c2cccc(-c3ccc(N4CCOC(F)(F)C4=O)cc3)c2Cl)C(=O)N1 (stereo not drawn)
Result: 100 to 1000 nM

Request: Continue with O=C1CCC(c2cccc(-c3ccc(-n4ccc(F)cc4=O)cc3)c2Cl)C(=O)N1 (stereo not drawn)
Result: ≤ 100 nM

Request: And Cn1ccc(CNc2ccc(-c3cccc(C4CCC(=O)NC4=O)c3Cl)cc2)n1 (stereo not drawn) ?
Result: ≤ 100 nM

Request: How about this compound: O=C1CCC(c2cccc(-c3ccc(N4C(=O)CCC45CC5)cc3)c2Cl)C(=O)N1 (stereo not drawn)
Result: ≤ 100 nM
